In this section, each of the sequences is paired with its reported folding stability dG unfold.
experimental.protocol: folding stability dG unfold from chymotrypsin proteolysis; higher = more stable
The reply should contain only the number, in kcal/mol.

| seq.text | unit.info | quantitative.result |
| --- | --- | --- |
| SAGSSLTTTSTTTFPGTVRVTTKTPDGKTFTLTVSVSTVPTPDGRVVPSVTTTMDPAARSSNVSPEVDRSAG [r5_462_JUSTAS] | kcal/mol | -0.0322 |
| SAGGSAGGSAPTSSVVTFPYESPEEARERARELAEEERARRGVRFRVEYDPATGTVTLTAVESAGGSAGGSA [r18_368_JUSTAS] | kcal/mol | 0.926 |
| SAGGSAKFKLEATPLEDGTLIIPIEIEVTVEKPFPDPNGIPKIKPVKKKFRFLIIKDGDEIKIFLGSAGGSA [r15_883_TrMRF] | kcal/mol | 2.66 |
| SAGGMKVRIRIEVDGKTLELELEVEPGETVKITLEVNGEEVTITFDAATGEITIELPPGAKIVEIEPSAGGS [r16_761_TrROS_Hall] | kcal/mol | 4.52 |
| SAGGSAGGSAGGEKEEEEVTVTIYNKETDKVIEITVPKGVTEEEARKKAKELAEELEKKKSAGGSAGGSAGG [r7_957_TrROS_Hall] | kcal/mol | -0.316 |
| SAGGSAGGSAGGSKVPPGAKITVERHDGGYRTVEIRPPNGKPVEIMMPEDDADEIADQISAGGSAGGSAGGS [r4_16_TrROS] | kcal/mol | -1.26 |

# ---- query sequence ----
Ask | folding stability dG unfold for SAGGSFEPKREIEITLPNGREIEVWRYPGEGQMWVKLRFPNNGQKVEIPVKSPEDAEDSLKKFLKNSAGGSA [r2_70_TrROS] ?
Reply | -0.334

----------
experimental.protocol: folding stability dG unfold (combined trypsin and chymotrypsin); higher = more stable
endpoint.label: folding stability dG unfold (kcal/mol)
The reply should contain only the number, in kcal/mol.

Check out these entries, answers already filled in.
| seq.text | unit.info | quantitative.result |
| --- | --- | --- |
| SAEKKVLVKVKIEVFNEDGELVEELELEVEMSAEEVKKKIKEELLKLLKEKYPDKPLTIKVEVEVKELPSAG [r14_570_TrROS_Hall] | kcal/mol | 3.67 |
| SAKKTVKLKIEIYKVKVEKLKDGKEKITEVEKIAELEIEAEVDEDGKVTIRIDGKEIEVPAGTSLEELLSAG [r14_909_TrROS_Hall] | kcal/mol | 2.76 |
| SAGGSAGGSKVEVKEFEFKANGSKALIEKLEDGSVKIIVLGEEPKEYEISPEEPIVILPGFEVSAGGSAGGS [r12_1003_TrMRF] | kcal/mol | -0.172 |

Ask | folding stability dG unfold for SAGGSAGGSGSSTSANAGGIVTSSSTVPLPPDTRPVSVSTSTPSSKPVKTTVLPDKTVTTPLGSAGGSAGGS [r12_994_JUSTAS] ?
Reply | 1.38

Ask | Field entry: SAGGSAGGKTKVKGTLIGPNGPPVEVEGEALLPDGREYDVHIDAVLLPDPEGEPTVVVKVEVKPSAGGSAGG [r6_334_TrMRF]
Reply | -0.127

----------
experimental.protocol: folding stability dG unfold from trypsin proteolysis; higher = more stable
Classification field: enter satisfied for folding stability dG unfold values not below 0.6 kcal/mol, not satisfied for values below it.

# count of solved cases: 5
| seq.text | category.label |
| --- | --- |
| SAGGSAGGSAPSKKVKFKVLAKNTKTGKYKEIDITAEVPVSNGKVVSIEELLKKFPDFELKPSAGGSAGGSA [r18_267_TrMRF] | not satisfied |
| SAGGSPEVKVLLFYDPATGERVVVVVTYDPATGEKKVLVFVESRPELVELVKKLLEDLGYEVEVVPSAGGSA [r2_30_TrMRF] | satisfied |
| SAGMEVTVTDPIPLDPTPDGVPDVKPELVEERAKAAGFTDEIESVDTTPKPDSVTTTVTHPTATLTAGSAGG [r19_398_JUSTAS] | not satisfied |
| SAGGSAGGDAKTFEVEGMTVFVDPETGLAVAEFPDGYLALGRIEVFGPGVAKVDLEIFPLPPGLSAGGSAGG [r6_670_TrMRF] | satisfied |
| SAGGSAGGGIDLSNPEDIEEALKKSGIVGVFKVKIIPLPGGKWKKIIEPVKLLPKEELEKAGLISAGGSAGG [r6_402_TrMRF] | satisfied |

Now take the following sequence into account.
Ask | Is folding stability dG unfold at least 0.6 kcal/mol? Consider SAGGSLSEIIEKAKELAKKKYPNKGVTVPVEIKYKDPVKKKWIKVKIEITFDKNGNIIKITIKEIKLESAGG [r13_770_JUSTAS]
Reply | satisfied

----------
experimental.protocol: folding stability dG unfold from chymotrypsin proteolysis; higher = more stable
In this section, each of the sequences is paired with its reported folding stability dG unfold.
The reply should contain only the number, in kcal/mol.

Check out these entries, answers already filled in.
| seq.text | folding stability dG unfold / kcal/mol |
| --- | --- |
| SAGGSAGPLPNEKVEVTLTIPLNVLVLDEDGEPLTPEEIARRVRELFSDVSVTLEPGDRLVITLTESAGGSA [r15_645_TrMRF] | 1.7 |
| DIDIETHPNGTILIKVPRNLLDEIKDILKENGYNVKITGIDPDWGYIRFPLKPVPPPPPKPSPEDAEEQGDS [r1_78_TrROS] | 2.14 |
| SAGEGSRSPGVVLHVTTPTEPLVVREPVAPDEDPEAVLERLAAEVRAALGPDTTVSGEVLSPAELARAASAG [r5_583_JUSTAS] | -0.465 |
| SAGGSAGGYWKVEIKNGMTFSIPGMTLDEAKNHARWHGFPMPIDKIEIEPVKPPPPPPKDPDDQSAGGSAGG [r6_688_TrROS] | 2.95 |

Ask | folding stability dG unfold for SAGGSAGGSAGLTLRVKVKVELEYDPETNELTLRVEVEIELFPPPPLVVLSKEQLEELEESAGGSAGGSAGG [r17_454_TrROS_Hall] ?
Reply | 3.65

Ask | Field entry: SAGGSAGGSGMTVVTLEAEPETAEEAVAAAIQAIRDALPADETIASVEVSFDPATGKVTVVVESAGGSAGGS [r12_308_JUSTAS]
Reply | 2.01

Ask | Field entry: SAMTIEITVPPGMSVEELAKLLKELFPEVEEIKIEVEYDEETKELKVRIEIRPKPELSEEEKEALEKLKSAG [r14_645_TrROS_Hall]
Reply | 3.99

----------
experimental.protocol: folding stability dG unfold (combined trypsin and chymotrypsin); higher = more stable
endpoint.label: folding stability dG unfold (kcal/mol)
The reply should contain only the number, in kcal/mol.

| seq.text | endpoint.label | unit.info | quantitative.result |
| --- | --- | --- | --- |
| SAGGPWRFEIDDIQPPEDGKVQIRIKLYNDDGEPIQELSIPMKGVDDVKITIPIGNQPIKIPITVVPASAGG [r13_427_TrROS] | folding stability dG unfold | kcal/mol | 0.361 |
| SAGGSAGGSMPPVVLEVKDPESGKVTTLFFFPPTGEALVVPPDGSVFYEPFTSLDELVERLAGSAGGSAGGS [r12_511_TrMRF] | folding stability dG unfold | kcal/mol | 1.57 |
| SAGGSAGGSAGMEIEEKGDYLVIRIKVKEGETIELPEGWEVVDVEYDPETEEVTIVIRRKSAGGSAGGSAGG [r11_942_TrROS_Hall] | folding stability dG unfold | kcal/mol | 3.9 |
| SAGGSAGGSAPPVKTITVELVFFNPETQEVFVLRAEVRLLPDGTLEIRTEIERVKVEPGAVLLSAGGSAGGS [r12_116_TrROS_Hall] | folding stability dG unfold | kcal/mol | 2.09 |
| SAGGDILLVIPAELFFDEDGKPSEEAVKAIEKAAELAEKLNKEGKPVKIEVKVVPLLPPVSPSDPYVFSAGG [r13_731_TrMRF] | folding stability dG unfold | kcal/mol | -0.358 |
| SAGGSAGGSAGKNWFFRIKIKYPNGEERTIYIPGTLDEIKEELPGPIKNIDIEPMPAEDMSAGGSAGGSAGG [r11_596_TrROS] | folding stability dG unfold | kcal/mol | 1.52 |

Ask | folding stability dG unfold for SKPITADEIAKHFPGIKDVEPTPNKKRLDFDNPNGHKPTIEVSPDGTIMIEHQNPDNGQKQEQEIPIDDLSA [r9_427_TrROS] ?
Reply | 0.0598

----------
experimental.protocol: folding stability dG unfold (combined trypsin and chymotrypsin); higher = more stable
In this section, each of the sequences is paired with its reported folding stability dG unfold.
The reply should contain only the number, in kcal/mol.

Check out these entries, answers already filled in.
| seq.text | folding stability dG unfold, kcal/mol |
| --- | --- |
| SAGMVEVYEEDKRLLVRVTLESPDPSTITEETVRELLERLGLPVEELEISPTALPNGSYTVTAEVVVLPSAG [r5_922_JUSTAS] | 1.59 |
| SAGGSASPEELAERVAKEIEEKYPVEVTEIRVEEVSEDEVVLSMTYRKPLPGGETEVENRTVTLPQSAGGSA [r15_276_JUSTAS] | -0.404 |
| SMMYLVKIKVRNKETGELVEEIELVVESEEEAEKIAEELAEELGLEVEVEVKRISPEELEDPEILKELLESA [r9_864_TrROS_Hall] | 3.27 |
| SDLDPNSTLVFSAPFPVSDPDALLEHAETVARELGPDVRVERVVFDPNTPNVAVVEVSVPGGTVTLVYSRSA [r9_1079_TrMRF] | 1.33 |
| SAGGSAGGSRLDATRALLDKLPPGSVTVTVYVNGKPVTFRFGSREEIEEAIEANPDVEVEIEPASAGGSAGG [r6_421_TrMRF] | 1.38 |
| SAGGSAGGMARVLRVEPAEGDDTFYVEVEFYDPATGEVTLGRFRIPADRPDLATNIPADSWVVLSAGGSAGG [r6_978_TrMRF] | 1.25 |
| SAGGSAGGSAGGSSSSLTPIGSSEKLEKLPDSSLRLVTTTTYRDPVTGETSTTTTVTLTDSAGGSAGGSAGG [r7_546_JUSTAS] | 0.487 |
| SAGGSSRTISIPVSPSLSPEEVAELIKKEVKKMGEDKEVKVLSVDPSGRIDVLVGDEPITVDASLPSAGGSA [r2_102_JUSTAS] | 0.235 |

Ask | folding stability dG unfold for SAGGSAGGSVYSAKSPDGYTITISNGGKPITLPVSDPAKAASLTLKTPDGKTATVTIVPASLASAGGSAGGS [r12_730_JUSTAS] ?
Reply | -0.216

Ask | Field entry: SAGMKKVEIVEEVKDPETNEPVILVRDKDTGELVKFHPNGKVTIYDLNDPNKAKVFEAKISDVLEELANSAG [r5_491_TrMRF]
Reply | 0.847

Ask | Field entry: SAGMKKLPSEEERKKAEELAKKGELVIIIRLKNGEKLVIVVKSEEELKELLKKLPLEIEEIYVFKVKKKSAG [r5_481_TrROS_Hall]
Reply | 2.07

Ask | Field entry: SAGGSAGGSIFIHWTYEMEHERDPDDPDEPRMKMKIKDWVISIPEDDPDKLKELADKLGIPIISAGGSAGGS [r12_249_TrROS]
Reply | 1.24

Ask | Field entry: SAGGSAGGEKGYKLVEITIPVTVYHGNKPYTIPIPIKVKSPEEVEKLKKFIENTSYDPTSGKFSSAGGSAGG [r6_197_TrMRF]
Reply | 1.02

Value source: the supplement of paper PMC12764529
